Target: UniProt B4URF0
Test: Noncompetitive inhibition of recombinant influenza A virus rvH1N1 A/Bervig_Mission/1/18 neuraminidase
The following molecules are listed with their measured pIC50 values.
In plain terms, pIC50 is the concentration in mol/L turned into minus its base-10 logarithm.

Worked examples, 2 molecules total:
| MOLECULE | OUTCOME MEASURE | ENDPOINT VALUE |
| --- | --- | --- |
| COc1cc([C@H]2Oc3cc(O)c4c(=O)c(O)c(-c5ccc(O)cc5)oc4c3O[C@@H]2CO)ccc1O [RHODIOLININ] | pIC50 | 4.99 |
| O=c1cc(-c2ccc(O)c(O)c2)oc2cc(O)cc(O)c12 [LUTEOLIN] | pIC50 | 4.96 |

Note: attention shifts to another entry.
Dear colleague, please send me the reported pIC50 for O=c1c(O[C@@H]2O[C@H](CO)[C@@H](O)[C@H](O)[C@H]2O)c(-c2ccc(O)cc2)oc2cc(O)cc(O)c12 [ASTRAGALIN] when you can.
4.42
